molecular target: hBUB1 (Homo sapiens); construct: purchased Carna Biosciences 05-187; experiment: hBUB1 kinase activity assay (biochemical fluorescence polarization assay, IMAP); settings: BUB1/BUB3 3.26 nM, ATP 15 µM, BUB1/BUB3 substrate 75 nM; N=2, n=2; read-out: hBUB1 pIC50 (converted)
What IC50 was measured for each of the following?

> print(dat)
                                   compound                   tgt  measured.result
1  Clc1cccc(-c2nccc(Nc3c[nH]nc3-c3nc4cc(CN5CCOCC5)ccc4[nH]3)n2)c1  hBUB1 (Homo sapiens)         ≤ 0.1 µM

// each compound listed below needs its IC50
1. C#Cc1cccc(-c2ncc(OC)c(Nc3c[nH]nc3-c3nc4cc(CN5CCOCC5)ccc4[nH]3)n2)c1F
2. c1ccc(COc2nccc(Nc3c[nH]nc3-c3nc4cc(CN5CCOCC5)ccc4[nH]3)n2)cc1
3. Fc1c(Cl)cccc1-c1nccc(Nc2c[nH]nc2-c2nc3cc(CN4CCOCC4)ccc3[nH]2)n1
4. Clc1cccc(Oc2nccc(Nc3c[nH]nc3-c3nc4cc(CN5CCOCC5)ccc4[nH]3)n2)c1
5. Clc1cccc(-c2nccc(Nc3c[nH]nc3-c3nc4ccccc4[nH]3)n2)c1
6. Cc1cccc(-c2nccc(Nc3c[nH]nc3-c3nc4ccccc4[nH]3)n2)c1

["≤ 0.1 µM", "0.1 to 0.501 µM", "≤ 0.1 µM", "0.501 to 1 µM", "0.1 to 0.501 µM", "0.1 to 0.501 µM"]

====

molecular target: hBUB1 (Homo sapiens); construct: purchased Carna Biosciences 05-187; assay: hBUB1 kinase activity assay (biochemical fluorescence polarization assay, IMAP); conditions: BUB1/BUB3 3.26 nM, ATP 15 µM, BUB1/BUB3 substrate 75 nM; N=2, n=2; read-out: hBUB1 pIC50 (converted)
Reported property: IC50

The examples below pair each entry with its known result.
> print(dat)
                                   compound  measured.result
1  C#Cc1ccc(F)c(-c2ncc(OC)c(Nc3c[nH]nc3-c3nc4cc(CN5CCOCC5)ccc4[nH]3)n2)c1F [Compound 60]         ≤ 100 nM
2  C#Cc1cccc(-c2nccc(Nc3c[nH]nc3-c3nc4cc(CN5CCOCC5)ccc4[nH]3)n2)c1 [Compound 42]         ≤ 100 nM
3  COc1cnc(-c2cccc(C(F)(F)F)c2)nc1Nc1c[nH]nc1-c1nc2cc(CN3CCOCC3)ccc2[nH]1 [Compound 53]    100 to 501 nM

Now for the compound whose IC50 we want.
The value of IC50 measured for the compound C#Cc1cccc(-c2nccc(Nc3c[nH]nc3-c3nc4cc(CN5CCOCC5)ccc4[nH]3)n2)c1F [Compound 46] turned out to be ≤ 100 nM

====

Can you tell me IC50 for the items I'm about to list?
molecular target: hBUB1 (Homo sapiens, UniProt O43683); construct: purchased Carna Biosciences 05-187; test: hBUB1 kinase activity assay (biochemical fluorescence polarization assay, IMAP); details: BUB1/BUB3 3.26 nM, ATP 15 µM, BUB1/BUB3 substrate 75 nM; N=2, n=2; read-out: hBUB1 pIC50 (converted)
Sequence (O43683 whole entry): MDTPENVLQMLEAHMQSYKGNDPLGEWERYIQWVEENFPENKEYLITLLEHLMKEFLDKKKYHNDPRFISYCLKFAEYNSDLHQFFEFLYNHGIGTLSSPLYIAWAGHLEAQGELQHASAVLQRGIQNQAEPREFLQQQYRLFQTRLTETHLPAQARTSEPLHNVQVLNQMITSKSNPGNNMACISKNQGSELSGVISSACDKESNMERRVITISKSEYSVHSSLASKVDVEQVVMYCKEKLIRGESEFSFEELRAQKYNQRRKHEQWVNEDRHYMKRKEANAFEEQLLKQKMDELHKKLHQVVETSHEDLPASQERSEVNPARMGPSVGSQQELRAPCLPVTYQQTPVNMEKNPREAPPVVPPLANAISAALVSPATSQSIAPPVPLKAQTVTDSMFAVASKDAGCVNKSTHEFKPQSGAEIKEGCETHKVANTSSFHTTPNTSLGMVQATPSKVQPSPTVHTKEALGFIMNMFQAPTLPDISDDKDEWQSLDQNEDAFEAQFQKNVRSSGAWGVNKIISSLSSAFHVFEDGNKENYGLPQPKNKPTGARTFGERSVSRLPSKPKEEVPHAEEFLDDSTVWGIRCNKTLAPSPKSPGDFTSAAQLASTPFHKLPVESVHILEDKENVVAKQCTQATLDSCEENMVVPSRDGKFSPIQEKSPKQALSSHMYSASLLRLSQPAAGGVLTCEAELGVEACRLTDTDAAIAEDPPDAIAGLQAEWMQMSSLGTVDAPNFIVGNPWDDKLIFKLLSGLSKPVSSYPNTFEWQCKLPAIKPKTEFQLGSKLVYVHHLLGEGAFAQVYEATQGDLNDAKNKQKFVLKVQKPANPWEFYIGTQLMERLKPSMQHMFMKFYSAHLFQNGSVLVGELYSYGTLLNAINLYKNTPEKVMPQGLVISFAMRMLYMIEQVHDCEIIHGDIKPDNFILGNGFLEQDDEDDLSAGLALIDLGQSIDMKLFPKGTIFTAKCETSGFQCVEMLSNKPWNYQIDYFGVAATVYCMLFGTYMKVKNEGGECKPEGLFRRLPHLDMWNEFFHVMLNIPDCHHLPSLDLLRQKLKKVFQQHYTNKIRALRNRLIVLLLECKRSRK
Sequence (O43684 whole entry partner): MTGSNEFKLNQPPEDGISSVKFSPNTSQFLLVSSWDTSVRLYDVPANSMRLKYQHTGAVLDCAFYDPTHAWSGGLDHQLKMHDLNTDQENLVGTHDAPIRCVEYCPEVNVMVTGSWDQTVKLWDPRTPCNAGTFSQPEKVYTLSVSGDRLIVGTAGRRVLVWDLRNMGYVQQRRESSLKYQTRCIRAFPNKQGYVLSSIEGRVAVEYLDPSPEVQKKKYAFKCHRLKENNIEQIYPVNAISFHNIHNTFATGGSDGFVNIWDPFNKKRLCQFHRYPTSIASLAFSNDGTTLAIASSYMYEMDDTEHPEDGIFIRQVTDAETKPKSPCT
Where a name gives a salt, the structure may show the parent alone.

> print(dat)
                                   molecule  measured.result
1  N#Cc1cccc(-c2nccc(Nc3c[nH]nc3-c3nc4cc(CN5CCOCC5)ccc4[nH]3)n2)c1 [Compound 44]   501 to 1000 nM
2  c1csc(-c2nccc(Nc3c[nH]nc3-c3nc4cc(CN5CCOCC5)ccc4[nH]3)n2)c1 [Compound 22, hydrochloride]   501 to 1000 nM
3  c1ccc(CCOc2nccc(Nc3c[nH]nc3-c3nc4cc(CN5CCOCC5)ccc4[nH]3)n2)cc1 [Compound 19]   501 to 1000 nM
4  COc1cnc(-c2cc(Cl)ccc2F)nc1Nc1c[nH]nc1-c1nc2cc(CN3CCOCC3)ccc2[nH]1 [Compound 57]         ≤ 100 nM
5  COc1cnc(-c2cccc(C#N)c2)nc1Nc1c[nH]nc1-c1nc2cc(CN3CCOCC3)ccc2[nH]1 [Compound 54]         ≤ 100 nM

Provide IC50 values for the following items, in order.
1. c1ccc(-c2nccc(Nc3c[nH]nc3-c3nc4cc(CN5CCOCC5)ccc4[nH]3)n2)cc1 [Compound 16]
2. Clc1ccc(Oc2nccc(Nc3c[nH]nc3-c3nc4cc(CN5CCOCC5)ccc4[nH]3)n2)cc1 [Compound 50]
3. Clc1ccccc1-c1nccc(Nc2c[nH]nc2-c2nc3ccccc3[nH]2)n1 [Compound 25]

["100 to 501 nM", "501 to 1000 nM", "501 to 1000 nM"]

Every entry's value here was drawn from patent EP4293019A1.
